Biological target: human TLR8 (Homo sapiens (Human), UniProt Q9NR97)
Sequence (Q9NR97 27-1041): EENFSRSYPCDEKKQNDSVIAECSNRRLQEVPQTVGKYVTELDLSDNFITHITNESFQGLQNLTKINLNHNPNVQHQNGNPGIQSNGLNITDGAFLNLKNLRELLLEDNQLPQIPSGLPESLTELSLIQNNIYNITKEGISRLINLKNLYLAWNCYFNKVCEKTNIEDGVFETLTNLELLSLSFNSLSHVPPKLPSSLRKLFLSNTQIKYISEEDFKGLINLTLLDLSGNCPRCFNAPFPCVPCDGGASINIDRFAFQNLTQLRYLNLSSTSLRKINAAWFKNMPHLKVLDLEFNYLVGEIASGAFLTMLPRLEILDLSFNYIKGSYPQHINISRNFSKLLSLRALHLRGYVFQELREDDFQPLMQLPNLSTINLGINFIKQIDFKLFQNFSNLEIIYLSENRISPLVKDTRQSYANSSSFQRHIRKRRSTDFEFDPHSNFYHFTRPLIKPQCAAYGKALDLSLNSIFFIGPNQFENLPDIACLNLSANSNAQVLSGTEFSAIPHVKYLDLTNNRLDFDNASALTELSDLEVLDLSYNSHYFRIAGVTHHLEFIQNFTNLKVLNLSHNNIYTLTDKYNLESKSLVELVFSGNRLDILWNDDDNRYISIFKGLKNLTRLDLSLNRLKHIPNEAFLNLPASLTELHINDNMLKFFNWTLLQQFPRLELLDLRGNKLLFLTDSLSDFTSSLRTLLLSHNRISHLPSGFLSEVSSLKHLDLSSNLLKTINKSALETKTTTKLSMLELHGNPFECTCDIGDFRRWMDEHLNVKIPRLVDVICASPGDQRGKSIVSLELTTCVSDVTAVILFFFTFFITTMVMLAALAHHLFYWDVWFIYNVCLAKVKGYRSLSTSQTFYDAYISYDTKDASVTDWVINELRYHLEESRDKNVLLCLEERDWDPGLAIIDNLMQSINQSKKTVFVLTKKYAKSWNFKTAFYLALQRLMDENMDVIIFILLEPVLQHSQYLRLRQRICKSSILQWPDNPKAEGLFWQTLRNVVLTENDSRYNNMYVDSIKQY
Test: TLR8 inhibition reporter assay (HEK-Blue SEAP);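 note: SEAP driven by IFN-β minimal promoter carrying NF-κB and AP-1 sites, compounds dosed 0.05 nM to 50 µM for 22 h, inhibition scaled between agonist-plus-DMSO and reference-inhibitor wells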
Conditions: read-out: TLR8 IC50; HEK-Blue human TLR8 cells, R848 15.9 μM
Item-by-item account of IC50
property_measured: IC50 (nM)

# molecule, unit_name, qualifier_operator, assay_value
records = [
    ("Cc1c(-c2[nH]c3ccc(N4CCN(C(=O)CN5CCC(F)(F)C5)CC4)nc3c2C(C)C)cn2ncnc2c1C", "nM", "=", 1),
    ("Cc1c(-c2[nH]c3ccc(C4CCC(N5CCC6(COC6)C5)CC4)nc3c2C(C)C)cn2ncnc2c1C (centres unmarked) [Example 1063]", "nM", "=", 18),
    ("Cc1c(-c2[nH]c3ccc(N4C[C@@H](C)N(C(=O)CN(C(C)C)C(C)C)C[C@@H]4C)nc3c2C(C)C)cn2ncnc2c1C", "nM", "=", 0.86),
    ("CCN(CC)CC(=O)N1CCN(c2ccc3[nH]c(-c4cn5ncnc5c(C)c4C)c(C(C)C)c3n2)[C@@H](C)C1", "nM", "=", 1.4),
    ("COc1cc(-c2[nH]c3ccc(C4CCC(N5CC6(CCO6)C5)CC4)nc3c2C(C)C)cn2ncnc12 (centres unmarked) [Example 1074]", "nM", "=", 1.9),
    ("Cc1c(-c2[nH]c3ccc(N4C[C@@H](C)N(C(=O)CN5CCCC5)[C@H](C)C4)nc3c2C(C)C)cn2ncnc2c1C", "nM", "=", 6.9),
    ("Cc1c(-c2[nH]c3ccc(N4CCN(CC#N)C[C@@H]4C)nc3c2C(C)C)cn2ncnc2c1C", "nM", "=", 0.63),
    ("Cc1c(-c2[nH]c3ccc(N4CCN(C5CCOCC5)C[C@@H]4C)nc3c2C(C)C)cn2ncnc2c1C", "nM", "=", 2),
    ("Cc1c(-c2[nH]c3ccc(N4[C@H](C)CN(CCCS(C)(=O)=O)C[C@H]4C)nc3c2C(C)C)cn2ncnc2c1C", "nM", "=", 34),
    ("Cc1c(-c2[nH]c3ccc(N4C[C@@H](C)NC[C@H]4C)nc3c2C(C)C)cn2ncnc2c1C", "nM", "=", 1.5),
    ("Cc1c(-c2[nH]c3ccc(N4CC5(CN(CC(C)(C)O)C5)C4)nc3c2C(C)C)cn2ncnc2c1C", "nM", "=", 1.3),
    ("CNCCC(=O)N1C[C@H](C)N(c2ccc3[nH]c(-c4cn5ncnc5c(C)c4C)c(C(C)C)c3n2)C[C@H]1C", "nM", ">", 3120),
    ("CCN(C1CCC(c2ccc3[nH]c(-c4cn5ncnc5c(C)c4C)c(C(C)C)c3n2)CC1)C1COC1 (centres unmarked) [Example 1038]", "nM", "=", 1.3),
    ("COc1cc(-c2[nH]c3ccc(C4CCC(N5CC6(CCOC6)C5)CC4)nc3c2C(C)C)cn2ncnc12 (centres unmarked) [Example 1069]", "nM", "=", 0.17),
]
